B1: OR4K15 (parent)
chain: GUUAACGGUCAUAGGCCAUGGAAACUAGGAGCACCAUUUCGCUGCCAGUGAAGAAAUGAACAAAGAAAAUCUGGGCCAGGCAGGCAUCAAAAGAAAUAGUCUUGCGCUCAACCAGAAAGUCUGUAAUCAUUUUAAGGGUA

- Variants of: B1
- TEST_DETAILS: self-cleavage, relative activity (ratio to wild type); higher = more cleavage; in vitro, sequencing; the parent is a self-cleaving ribozyme
PROPERTY_NAME: self-cleavage
Give bare numbers.

Provide the reported self-cleavage of each entry below, same order.
1. G28U A47G
2. G75A U103C
3. A89G U97A
4. A23G A64U

[2.28, 0.06, 0.88, 1.2]

Give me self-cleavage for each of these variants, listed below.
1. A92U A116G
2. A94U U102C
3. A11G A78G
4. A66G A94G
5. A68C A94G
6. U70C A94U
7. A23G U108A

1. 0.99
2. 1.36
3. 0.54
4. 1.55
5. 1.69
6. 0.2
7. 0.02

Consider the following items and state reported self-cleavage for each.
1. A68U A114U
2. C40U U122A

1. 0.06
2. 1.3

The following variants each have a reported value; give each one's self-cleavage.
1. A67G A69C
2. A54G A82U
3. A91G A92C
4. A24G U132C

1. 1.68
2. 0.26
3. 0.76
4. 1.31

Each of the following entries comes with a recorded value; kindly state self-cleavage for each.
1. A22G G48A
2. U39A U120A
3. A60C U122A
4. A24G U103A
5. U3C U43A
6. A33U C35U
7. A64G U133A
8. A55G U131C

[1.56, 1.92, 1.74, 0.42, 1.31, 1.93, 1.52, 1.63]

// for each variant below, give its self-cleavage
1. A5G G7A
2. G1A A114U
3. A95G A116U
4. U38A U120C
5. A23G U87A
6. G7A A27G

1: 0.91; 2: 0.26; 3: 0.45; 4: 1.12; 5: 0.94; 6: 1.3

Parameter requested: self-cleavage. Apply to each item below.
1. U19C U38C
2. U38C A86G
3. A36G G79A
4. U2C U12C
5. G41A A125G

[1.22, 1.65, 0.1, 0.74, 0.77]

Return reported self-cleavage values for all items listed beneath this line.
1. A69G A90G
2. A18G C46U
3. G137C A140U
4. A62G U127C
5. C25U A47G

1.43
1.34
1.65
0.38
1.76
